System: Summer barley
Assay protocol: Example C: Herbicidal post-emergence action, use of safeners (crop plant damage)
Type: in vivo
Conditions used: 10 days after application; 25 g of a.i./ha; no safener
Recorded Summer barley observed (%) for the following compounds

The following compounds have reported results that may help.
compound="CCOC(=O)OC1=C(c2c(C3CC3)cc(C)cc2C2CC2)C(=O)NC1(C)C [Example I-1-c-13]" observed_value=20%
compound="COC1CCC2(CC1)NC(=O)C(c1c(C)cc(C)cc1C1CC1)=C2O (stereo not shown) [Example I-1-a-7]" observed_value=50%
compound="CCOC(=O)OC1=C(c2c(C)cc(C)cc2C2CC2)C(=O)NC12CCC(OC)CC2 (single isomer, unassigned) [Example I-1-c-7]" observed_value=40%

Could you now look at the following compound, please?
Record CCc1cc(C)cc(C2CC2)c1C1=C(O)C2CCCN2C1=O (stereo not shown) [Example I-1-a-18] . Reported Summer barley observed (%): 15%

src = patent US8541617B2
